# System: A498 renal
# experimentDescription: NCI tumour cell line growth inhibition, 48 h
Everything with TGI lower than 30 µM is rule not met; everything else, including exactly 30 µM, is rule met.

1. COc1cc(C2c3cc4c(cc3[C@@H](Nc3cnc5ccccc5c3)C3COC(=O)[C@H]23)OCO4)cc(OC)c1O (some centres undefined); rule not met
2. C=CCNC(=S)NC=C(C(N)=O)C(N)=O; rule met
3. C=C1C(=O)OC2/C=C(\CO)C3OC3C3OC3(C)CC(OC(=O)/C(=C/C)COC(C)=O)C12 (centres undefined); rule not met
4. CC1(c2cccc(C(F)(F)F)c2)CC(c2cccc(C(F)(F)F)c2)=C(C#N)C(=C(C#N)C#N)N1 (centres undefined); rule met
5. CC1=NN(c2nc(N)nc(CCl)n2)C(C)(C)C1; rule met
6. CC(=O)CC(=O)Nc1ccc(OS(N)(=O)=O)cc1; rule met
7. O=C(N/N=C/c1coc2ccc(Cl)cc2c1=O)c1cc(O)c(O)c(O)c1; rule met
8. CC(Oc1ccc(Cl)cc1Cl)C(=O)NN1C(=O)CC(=O)NC1=S (centres undefined); rule met
9. CCCOC(=O)C1C(c2ccc(OC)cc2)NC(c2ccc(OC)cc2)C(C(=O)OCCC)S1(=O)=O (centres undefined); rule met
10. CCOC(=O)/C(=C\n1c(=O)sc2ccccc21)C(=O)c1ccccc1; rule met
11. Cc1cc(NS(=O)(=O)c2ccc(NC(=O)c3ccc4nc5ccccc5c(Nc5ccc(S(N)(=O)=O)cc5)c4c3)cc2)no1; rule met
12. O=C1c2c[n+](Cc3ccccc3)ccc2-c2nc3ccccc3c3ccnc1c23; rule not met
13. Cc1ccc(-c2csc3ncnc(Nc4cccc(O)c4)c23)cc1; rule met
14. CSCCCNC(=O)c1csc(-c2csc(CCNC(=O)CNC(=O)OC(C)(C)C)n2)n1; rule met
15. CCOC(=O)C1=C(C)N(Cc2ccccc2)C2(O)C=CC(=O)C3C(=O)N(c4ccccc4)C(=O)C132 (centres undefined); rule not met
16. C(#Cc1ccccc1C#Cc1cnccn1)c1cnccn1; rule met
17. C=C1C(=O)OC2/C=C(CO)/C=C\C3OC3(C)CC(OC(=O)/C(C)=C/COC(C)=O)C12 (centres undefined); rule not met
18. COc1cccc(-c2nc(N)c(C#N)c3c2CCS(=O)(=O)c2ccc(C)cc2-3)c1; rule met
19. O=C(Cn1c(C(=O)/C=C/c2ccc(Cl)c(Cl)c2)nc2ccccc21)c1ccccc1; rule met
20. COc1cccc(/C=C2\COc3ccc(O)c(O)c3C2=O)c1OC; rule not met
21. NNC(=S)N/N=C(\c1nc2ccc(Cl)cc2[nH]c1=O)C(O)c1cccc([N+](=O)[O-])c1 (centres undefined); rule met
22. CC(=O)/C=C1/C(=O)C(CC(C)C)=C1CC(C)C; rule met
23. CCCCCCCCCCCCCCCCNc1nc(=O)n(C2CC(O)C(COP(=O)(O)OC3CC(n4cc(F)c(=O)[nH]c4=O)OC3CO)O2)cc1F (centres undefined); rule met
24. C[C@H]1CCC/C=C/[C@@H]2C[C@H](O)C[C@H]2[C@H](O)C(O)C(O)C(=O)O1 (some centres undefined); rule not met
25. COC(=O)/C=C1\C(=O)Nc2ccc(Br)cc21; rule not met
26. Nc1ncnc2c1ncn2C1(CO)OC(CO)C(O)C1O (centres undefined); rule met
27. O=C1CC2=CCCC2O1 (centres undefined); rule met

====

# Test system: HCT-116 colon
# experimentDescription: NCI tumour cell line growth inhibition, 48 h
valueKind: TGI

1) O=C1C=CC(=O)N1c1ccc2ccccc2c1; 12.4 µM
2) CN1C=C(C(N)=O)Cc2ccsc21; > 100 µM
3) O=C1C=C(c2ccccc2)NC1(c1ccccc1)c1cc(-c2ccccc2)[nH]c1-c1ccccc1 (stereo unspecified); > 100 µM
4) COc1cc2c(cc1OCCCN1CCN(CCCOc3cc4c(cc3OC)C(=O)N3C[C@H](F)C[C@H]3C=N4)CC1)N=C[C@@H]1C[C@@H](F)CN1C2=O; 0.252 µM
5) CC1Nc2ccccc2NC1C=C(C#N)C#N (stereo unspecified); 26.8 µM
6) CN(C)c1ccc(-c2nc(N)nc3c2CCCC3)cc1; > 100 µM
7) O=C(O)c1cc(-c2ccc3cc(O)c(O)cc3c2)ccc1O; > 12.5 µM
8) Cc1ccccc1-c1cc(=O)c2cc(C)c(C)c(C(=O)O)c2o1; > 100 µM
9) Cc1ccccc1-n1c(=O)nc2n(-c3ccc(C(C)(C)C)cc3)c3ccccc3cc-2c1=O; 28.8 µM
10) N#Cc1ccccc1NC(=O)C(O)C(O)C(O)C(O)C=O (stereo unspecified); > 100 µM
11) O=C1/C(=C/c2ccccc2)CN(C(=O)/C=C/c2ccccc2)C/C1=C\c1ccccc1; 2.02 µM
12) COC(=O)c1c(C)c2c(c(C)c1O)OC(=O)c1c(C)cc(O)c(C=O)c1O2; > 100 µM
13) O=C(O)CC(CC(=O)O)n1cccc1; > 100 µM
14) CCC(=O)NC(NNS(=O)(=O)c1ccc(C)cc1)(C(F)(F)F)C(F)(F)F; > 100 µM
15) CCCCCCCCC#CCCCCCCC(F)C(=O)O (stereo unspecified); > 100 µM
16) CC1CCC2C(C(=O)O[C@H]3C4C=CO[C@@H](OC5OC(CO)C(O)C(O)C5O)C4[C@@]4(CO)O[C@@H]34)=CO[C@@H](OC3OC(CO)C(O)C(O)C3O)C12 (stereo partly specified); > 10 µM

====

# Tested on: DU-145 prostate
# experimentDescription: NCI tumour cell line growth inhibition, 48 h
valueKind: TGI

1. COc1ccc(-n2c(C)nc3ccc(NC4OC(COC(C)=O)C(OC(C)=O)C(OC(C)=O)C4OC(C)=O)cc3c2=O)cc1 (centres undefined); > 100 µM
2. COP(=O)(OC)[C@@](O)(c1ccccc1)[C@@H](O)[C@@H](O)c1ccccc1; > 100 µM
3. CCc1cn(C2CC(CO)C(CO)S2)c(=O)[nH]c1=O (centres undefined); > 100 µM
4. COc1cccc(/C=N/[N+](C)(C)C)c1O; > 10 µM

====

# System: SK-MEL-2 melanoma
# experimentDescription: NCI tumour cell line growth inhibition, 48 h
TGI by entry:
valueKind: TGI

1. NC(N)=NS(=O)(=O)c1ccc(NCc2cccc3c(=O)c4ccc(Cl)cc4oc23)cc1; > 16.7 µM
2. CN1C=C(C(N)=O)Cc2ccsc21; > 100 µM
3. C[C@H]1CCC/C=C/[C@@H]2C[C@H](O)C[C@H]2[C@H](O)C(O)C(O)C(=O)O1 (some centres undefined); > 23.9 µM
4. CCCCCCCCCCCC(=O)OCC(O)CO (centres undefined); > 100 µM

====

GI50 by entry:
# Test system: HCC-2998 colon
# experimentDescription: NCI tumour cell line growth inhibition, 48 h
valueKind: GI50

1. CCn1cnc(C[C@H](NC(=O)[C@@H](NC(=O)Nc2cc(C(F)(F)F)cc(C(F)(F)F)c2)C(C)(C)C)C(=O)OC)c1; > 10 µM
2. C=CCn1c(C)nc2cc(Nc3nc(N4CCCC4)nc4nc[nH]c34)ccc21; > 100 µM
3. CCc1n(Cc2ccc3ccccc3c2)cc[n+]1Cc1ccc2ccccc2c1; 0.518 µM
4. CCCCCCCCCCCCNCCCc1ccccc1; 1.75 µM

====

log10 of TGI by entry:
# System: RXF 393 renal
# experimentDescription: NCI tumour cell line growth inhibition, 48 h
valueKind: log10 of TGI (log10 of the value in µM)

1. Cc1ccccc1-n1c(=O)nc2n(-c3ccc(C(C)(C)C)cc3)c3ccccc3cc-2c1=O; 1.59
2. CCCCCCCCCCCCNCCCc1ccccc1; 0.49
3. CCN1C(c2ccccc2)=CC(c2ccccc2)(C(Cl)(Cl)Cl)C=C1c1ccccc1; 1.86
4. CC(=O)OC1C(C)OC(Oc2c(-c3ccc(O)cc3)oc3cc(O)cc(O)c3c2=O)C(O)C1OC(C)=O (stereo unspecified); 1.86
5. CC1(c2cccc(C(F)(F)F)c2)CC(c2cccc(C(F)(F)F)c2)=C(C#N)C(=C(C#N)C#N)N1 (stereo unspecified); 1.50
6. COc1ccc(/C=C2\CC3C4CC=C5C[C@@H](N6CCCC6)CC[C@]5(C)C4CC[C@]3(C)[C@H]2O)cc1OC (stereo partly specified); 1.40
7. O=c1oc2cc(O)ccc2cc1-c1nc2ccccc2o1; 1.55
8. Cc1nc2ccccc2c(/C=C/c2ccc(F)cc2)c1C(=O)/C=C/c1ccccc1; 0.51
9. COc1cc(C2c3cc4c(cc3[C@@H](Nc3cnc5ccccc5c3)C3COC(=O)[C@H]23)OCO4)cc(OC)c1O (stereo partly specified); 0.48
10. CCOC(=O)c1c(C)n(Cc2ccc(Cl)cc2Cl)c2c1cc(O)c1[nH]c(Cc3ccccc3)nc12; 0.72
11. CC1Nc2ccccc2NC1C=C(C#N)C#N (stereo unspecified); 1.50
12. COc1ccc(C(=O)c2no[n+]([O-])c2C(=O)c2ccc(OC)cc2)cc1; 0.77
13. C[C@]12CC/C(=N\OCCN3CCCC3)C=C1CCC1C2CC[C@@]2(C)C1CC[C@]2(C)O (stereo partly specified); 1.88
14. Fc1nc(-c2c3ccccc3c3sc4ccccc4n23)nc(N2CCOCCOCCOCCOCC2)n1; 1.71
15. CC[C@@]1(O)C(=O)OCc2c1cc1n(c2=O)Cc2cc3c(N)c(OC)ccc3nc2-1; -0.37

The measured values listed here are drawn from PubChem BioAssay (NCI).
